- assay_system: thrombin (Homo sapiens, UniProt P00734)
- Construct: consists of two polypeptide chains of 36 (light chain) and 259 amino acid
- assay_details: Thrombin inhibition screen of crude macrocycle reactions (residual thrombin activity, fluorogenic substrate Z-Gly-Gly-Arg-AMC)
- Type: biochemical
- condition_notes: 10 µM macrocycle concentration; crude reactions, Library 1a-l; scaffold AA1-AA2-AA3 combined with 1-16 or '-'
Listing: percent residual thrombin activity of selected compounds
Field: numeric (%). Do not append units.

>>> result_number("CC(C)[C@@H]1NC(=O)[C@H]2CCCN(C2)C(=O)[C@H](CCCNC(=O)c2ccc(Cl)s2)NC(=O)CCSSCCNC1=O [D2-B4-V/14]")
102.581

Kindly indicate its recorded percent residual thrombin activity. Item: COc1ccc(C(=O)NCCC[C@@H]2NC(=O)C3(CC3)CNC(=O)CCSSCCNC(=O)[C@H](Cc3c[nH]c4ccccc34)NC2=O)cn1 [B6-D2-W/10]
93.1158

Kindly indicate its recorded percent residual thrombin activity. Item: COc1ccc(C(=O)NCCC[C@@H]2NC(=O)CCSSCCNC(=O)CCNC(=O)[C@@H](C)NC2=O)cn1 [D2-a-B2/10]
113.133

Kindly indicate its recorded percent residual thrombin activity. Item: C[C@H]1NC(=O)CCSSCCNC(=O)[C@H]2CCCN(C2)C(=O)[C@H](CCCCNC(=O)c2ccccc2)NC1=O [a-D1-B4/1]
107.784
